# target.desc: M1 muscarinic receptor (Homo sapiens, UniProt P11229)
# Construct: expressed in transfected cells; host or cells: CHO (M1-CHO)
# Sequence (P11229 1-460): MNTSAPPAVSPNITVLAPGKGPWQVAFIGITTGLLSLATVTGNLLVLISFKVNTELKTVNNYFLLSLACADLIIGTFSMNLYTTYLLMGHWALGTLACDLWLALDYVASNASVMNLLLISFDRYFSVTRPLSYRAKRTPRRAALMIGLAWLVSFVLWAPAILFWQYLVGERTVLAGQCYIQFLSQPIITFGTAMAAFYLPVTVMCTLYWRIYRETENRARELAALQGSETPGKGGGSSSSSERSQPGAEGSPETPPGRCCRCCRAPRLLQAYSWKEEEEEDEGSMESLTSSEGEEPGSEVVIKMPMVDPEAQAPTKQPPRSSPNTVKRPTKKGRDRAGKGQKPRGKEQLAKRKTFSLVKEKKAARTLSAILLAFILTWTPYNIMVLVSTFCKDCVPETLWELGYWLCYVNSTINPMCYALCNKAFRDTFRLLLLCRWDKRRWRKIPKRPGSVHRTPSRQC
# assay.notes: Functional mobilization of intracellular calcium (FLIPR) in M1-CHO cells
# Format: cell-based
# condition.label: M1 receptor, calcium mobilization; read-out: M1 Efficacy
Entries and their Emax

Solved cases below.
Clc1ccc2c(c1)C1(CCN(C3CC4CCC3C4)CC1)CN2 (centres unmarked) = 65 to 85%
O=C(OC1CCC1)N1CC2(CCN(C3CC4CCC(C3)N4C(=O)O[C@H]3CCOC3)CC2)c2cc(F)ccc21 (some centres unmarked) = 65 to 85%
CCOC(=O)N1C2CCC1CC(N1CCC3(CC1)CN(C(=O)c1ccno1)c1ccc(F)cc13)C2 (centres unmarked) = 65 to 85%
CCOC(=O)N1CCC(N2CCC3(CC2)CN(C(C)=O)c2ccc(Cl)cc23)CC1 = > 85%
CC(C)OC(=O)N1C2CCC1CC(N1CCC3(CC1)CN(C(=O)OC1CCC1)c1ccc(F)cc13)C2 (centres unmarked) = > 85%

For this compound ( CC(=O)N1CC2(CCN(C3CCCCCC3)CC2)c2cc(F)ccc21 ), measured Emax is 65 to 85%

For this compound ( CCOC(=O)N1CCC(N2CCC3(CC2)CN(C(C)=O)c2ccc(-c4ccccc4OC)cc23)CC1 ), measured Emax is 65 to 85%

For this compound ( CCCC1CCC(N2CCC3(CC2)CNc2ccccc23)CC1 (centres unmarked) ), measured Emax is < 65%

====

# target.desc: M4 muscarinic receptor (Homo sapiens)
# Construct: expressed in transfected cells; host or cells: CHO (M4-CHO)
# assay.notes: Functional mobilization of intracellular calcium (FLIPR) in M4-CHO cells
# Assay type: cell-based
# condition.label: M4 receptor, calcium mobilization; read-out: M4 Efficacy
Entries and their Emax

CC(C)OC(=O)N1C2CCC1CC(N1CCC3(CC1)CN(C(=O)OC1CCC1)c1ccc(F)cc13)C2 (centres unmarked) = > 85%

For this compound ( CC(=O)N1CC2(CCN(C3CC4CCC(C4)C3)CC2)c2cc(F)ccc21 (centres unmarked) ), measured Emax is > 85%

For this compound ( COC(=O)N1CC2(CCN(C3CC4CCC(C3)N4C(=O)OC(C)C)CC2)c2cc(F)ccc21 (centres unmarked) ), measured Emax is < 65%

For this compound ( CCCOC(=O)N1C2CCC1CC(N1CCC3(CC1)CN(C(=O)OC1CCC1)c1ccc(F)cc13)C2 (centres unmarked) ), measured Emax is < 65%

For this compound ( CC(=O)N[C@H]1CC2(CCN(C3CCCCCCC3)CC2)c2ccccc21 ), measured Emax is < 65%

For this compound ( COC(=O)N1CC2(CCN(C3CC4CCC(C3)N4C(=O)OCC(C)C)CC2)c2cc(F)ccc21 (centres unmarked) ), measured Emax is < 65%

For this compound ( Cc1ccc2c(c1)C1(CCN(C3C4CCCC3CCC4)CC1)CN2 (centres unmarked) ), measured Emax is 65 to 85%

For this compound ( CC#CCOC(=O)N1CCC(N2CCC3(CC2)CN(C(=O)N(C)C)c2ccc(F)cc23)CC1 ), measured Emax is 65 to 85%

====

# target.desc: M1 muscarinic receptor (Homo sapiens)
# Construct: expressed in transfected cells; host or cells: CHO (M1-CHO)
# assay.notes: Functional mobilization of intracellular calcium (FLIPR) in M1-CHO cells
# Assay type: cell-based
# condition.label: Table 4; 100% efficacy is the maximum response obtained with the Carbachol control
Entries and their Emax

For this compound ( CCOC(=O)N1CCC(N2CCC3(CC2)CN(C(C)=O)c2ccc(C#N)cc23)CC1 ), measured Emax is 25 to 100%

For this compound ( CC(=O)N[C@H]1CC2(CCN(C3CCN(c4cccc(F)n4)CC3)CC2)c2ccccc21 ), measured Emax is 25 to 100%

For this compound ( O=C(N[C@H]1CCC2(CCN(CC3CC4C=CC3C4)CC2)c2ccccc21)C1CC1 (stereo partly shown) ), measured Emax is 25 to 100%

For this compound ( C1=CC2CC1CC2CN1CCC2(CCCc3ccccc32)CC1 (stereo not shown) ), measured Emax is 25 to 100%

For this compound ( O=C(N[C@H]1CC2(CCN(C3CC4CC[C@@H]3C4)CC2)c2ccccc21)N1CCOCC1 (stereo partly shown) ), measured Emax is 25 to 100%

For this compound ( CCCOC(=O)N1CC[C@@H](CN2CCC3(CC2)CN(C(=O)N(C)C)c2ccc(F)cc23)C1 ), measured Emax is 25 to 100%

For this compound ( CC#CCOC(=O)N1CCC(N2CCC3(CC2)CN(CCOC)c2ccc(F)cc23)CC1 ), measured Emax is 25 to 100%

For this compound ( CC(=O)NC1CCC2(CCN(CCC3CCN(C(=O)N(C)C)CC3)CC2)c2ccccc21 (stereo not shown) ), measured Emax is 25 to 100%

For this compound ( CN(C)C(=O)N[C@H]1CC2(CCN(CCC3CC4CC[C@@H]3C4)CC2)c2ccccc21 (stereo partly shown) ), measured Emax is < 25%

====

# target.desc: M1 muscarinic receptor (Homo sapiens, UniProt P11229)
# Construct: expressed in transfected cells; host or cells: CHO (M1-CHO)
# assay.notes: Functional mobilization of intracellular calcium (FLIPR) in M1-CHO cells
# Assay type: cell-based
# condition.label: Table 4; 100% efficacy is the maximum response obtained with the Carbachol control
Entries and their Emax

Solved cases below.
CCOC(=O)N1CC[C@@H](CN2CCC3(CC2)CN(C(=O)N(C)C)c2ccc(F)cc23)C1 [compound 974] = 25 to 100%
CN(C)C(=O)N1CC2(CCN(C3CCN(c4cccnc4)CC3)CC2)c2cc(F)ccc21 [compound 535] = 25 to 100%
CCOC(=O)N1CCC(N2CCC3(CC2)CN(C(=O)[C@@H](O)CC)c2ccc(F)cc23)CC1 [compound 1004] = 25 to 100%

Turning now to a further molecule:
I looked up COC1CCCCC1N1CCC2(CC1)CN(C(C)=O)c1ccc(F)cc12 (stereo not shown) [compound 512] and its Emax for M1 muscarinic receptor (Homo sapiens, UniProt P11229) was < 25%

====

# target.desc: M4 muscarinic receptor (Homo sapiens, UniProt P08173)
# Construct: expressed in transfected cells; host or cells: CHO (M4-CHO)
# Sequence (P08173 1-479): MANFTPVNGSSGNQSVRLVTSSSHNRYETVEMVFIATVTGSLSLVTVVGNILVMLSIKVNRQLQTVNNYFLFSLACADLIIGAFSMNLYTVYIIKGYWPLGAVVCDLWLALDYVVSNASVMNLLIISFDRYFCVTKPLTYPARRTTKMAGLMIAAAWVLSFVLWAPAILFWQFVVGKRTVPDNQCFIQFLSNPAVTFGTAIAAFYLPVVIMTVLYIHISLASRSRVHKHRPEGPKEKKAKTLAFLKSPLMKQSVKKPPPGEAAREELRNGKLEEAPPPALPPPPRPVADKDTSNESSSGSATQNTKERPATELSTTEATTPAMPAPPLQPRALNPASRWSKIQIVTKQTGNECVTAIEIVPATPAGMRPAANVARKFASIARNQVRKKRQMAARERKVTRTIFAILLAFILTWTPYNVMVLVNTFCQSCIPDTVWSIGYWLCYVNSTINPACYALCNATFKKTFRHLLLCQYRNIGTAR
# assay.notes: Functional mobilization of intracellular calcium (FLIPR) in M4-CHO cells
# Format: cell-based
# condition.label: M4 receptor, calcium mobilization; read-out: M4 Efficacy
Entries and their Emax

Solved cases below.
CCOC(=O)N1CCC(CN2CCC3(CC2)CN(C(C)=O)c2ccc(OC(F)(F)F)cc23)CC1 = < 65%
c1ccc2c(c1)NCC21CCN(CC2CC3CCC2C3)CC1 (centres unmarked) = < 65%
CC(=O)N1CC2(CCN(C3CCC(C(F)(F)F)CC3)CC2)c2cc(F)ccc21 (centres unmarked) = 65 to 85%

For this molecule ( CCOC(=O)N1CCC(N2CCC3(CC2)C(=O)Nc2ccccc23)CC1 ), measured Emax is 65 to 85%

For this molecule ( Clc1ccc2c(c1)C1(CCN(C3CCOCC3)CC1)CO2 ), measured Emax is < 65%

For this molecule ( O=C(OC1CCC1)N1CC2(CCN(C3CC4CCC(C3)N4C(=O)O[C@H]3CCOC3)CC2)c2cc(F)ccc21 (some centres unmarked) ), measured Emax is < 65%

For this molecule ( CC(=O)N[C@H]1CC2(CCN(CC3CCCCC3)CC2)c2ccccc21 ), measured Emax is 65 to 85%

For this molecule ( CCOC(=O)N1C2CCC1CC(N1CCC3(CC1)CN(C(C)=O)c1ccc(F)cc13)C2 (centres unmarked) ), measured Emax is > 85%
